Where do the numbers come from? From PubChem BioAssay (NCI).

System: SK-MEL-2 melanoma
Test: NCI-60 one-dose screen, 48 h (100 = growth as untreated, 0 = no growth, -100 = all killed)
Settings: 10 µM unless noted
The panel holds about 83,000 compounds, 20% with a hit somewhere; the sample as a whole holds those more often.
Documented growth across a set of compounds
Write the answer as a number in %, unit excluded.

**Query** Report growth, nothing else, for this compound: CN(C)C(=S)N=Nc1c(O)[nH]c2ccccc12
**Result** -12.6

* * *

System: OVCAR-3 ovarian
Test: NCI-60 one-dose screen, 48 h
Conditions: 10 µM unless noted
The panel holds about 83,000 compounds, 20% with a hit somewhere; the sample as a whole holds those more often. Calls of active or inactive are those of the source. How the source made its calls: active means growth percent below 10; inactive means the rest.
The reply should be one of these categories: active, inactive

{"molecule": "CN1CCN(CCCOc2cccc3nc(Nc4ccc(Cl)c(F)c4)ccc23)CC1", "answer-label": "inactive"}
{"molecule": "O=C(/C=C/c1cc(CN2CCOCC2)c(O)c2ncccc12)c1cc(CN2CCOCC2)c(O)c2ncccc12", "answer-label": "inactive"}
{"molecule": "O=C1/C(=C/N2N=C(c3ccc4ccccc4c3)CC2c2ccccc2O)SC(=S)N1c1cccnc1 (stereo not given)", "answer-label": "active"}
{"molecule": "COc1cc(CNc2oc(-c3ccccc3)c(-c3ccccc3)c2C#N)cc(CN2CCN(C)CC2)c1O", "answer-label": "inactive"}

Attention now shifts to the item below.
**Query** Record request — test call for COc1ccc(Nc2c3c4c(cccc4[nH]c2=O)C(=O)c2ccccc2-3)cc1
**Result** active

* * *

Tested on: MCF7 breast
Assay: NCI-60 one-dose screen, 48 h (100 = growth as untreated, 0 = no growth, -100 = all killed)
Conditions: 10 µM unless noted
The panel holds about 83,000 compounds, 20% with a hit somewhere; the sample as a whole holds those more often. Activity calls are given as the source filed them. Rule for the calls: active = growth percent below 10; inactive = the rest.
reported-property: growth

Check out these entries, answers already filled in.
{"compound": "COc1cccc2c1C(=O)c1c(O)c3c(c(O)c1C2=O)C[C@](O)(C(=O)CO)C[C@H]3O[C@@H]1C[C@@H](NC(=O)CCCN(C)C2(c3ccc(F)cc3)CC3CCC2C3)[C@H](O)[C@@H](C)O1 (stereo partly drawn)", "growth": "-59% (active)"}
{"compound": "CCOC(=O)c1c(C)oc2ncnc(N3CCN(C(=S)Nc4ccccc4)CC3)c12", "growth": "93.1% (inactive)"}

Next item in the queue.
**Query** Provide measured growth value, entry: C=C(C)[C@@H]1CC[C@]2(C(=O)OC)CC[C@]3(C)[C@H](CC[C@@H]4[C@@]5(C)C/C(=C/c6cccc(I)c6)C(=O)C(C)(C)[C@@H]5CC[C@]43C)[C@@H]12
**Result** 89.2% (inactive)

* * *

System: IGROV1 ovarian
Assay: NCI-60 one-dose screen, 48 h
Settings: 10 µM unless noted
This is part of a sample that, as a whole, favours compounds with a hit. Of some 83,000 tested, about 20% had one in any assay. Active and inactive are the calls of the source. Rule for the calls: active = growth percent below 10; inactive = the rest.
Thanks in advance; please answer with one of these: yes (1) for active, no (0) for inactive

Some solved cases for reference:
{"molecule": "COc1ccc(-c2cc(-c3ccc(Nc4ccnc5cc(Cl)ccc45)cc3)nc(N3CCOCC3)n2)cc1", "answer-label": "no (0)"}
{"molecule": "Cc1cc(C)nc(SC2=C(Nc3ccc(O)cc3)C(=O)N(Cc3ccccc3)C2=O)n1", "answer-label": "no (0)"}
{"molecule": "Clc1ccc2nc3nc4ccc[nH]c4cc3c2c1", "answer-label": "no (0)"}
{"molecule": "COc1ccc(NC(=O)c2ccc(/C=C/C(=O)c3ncc[nH]3)cc2)cc1", "answer-label": "no (0)"}

**Query** Name the outcome recorded for COC(=O)[C@@H]1CCCN1C(=O)[C@@H]1CCCN1C(=O)[C@H](Cc1ccccc1)NC(=S)Nc1cc(C(F)(F)F)cc(C(F)(F)F)c1 in the assay.
**Result** no (0)

**Query** Test call for this molecule, please: CC(C)CC1C(=O)N2CCC[C@H]2C2(O)O[C@](NC(=O)C3C=C4c5cccc6[nH]c(Br)c(c56)C[C@H]4N(C)C3)(C(C)C)C(=O)N12 (stereo not given in full)
**Result** no (0)

**Query** Entry CC(C)C[C@@H](NC(=O)[C@@H](Cc1ccccc1)NC(=O)c1cnccn1)B1Oc2ccc(C[C@H](NC(=O)[C@H](Cc3ccc4c(c3)OB([C@@H](CC(C)C)NC(=O)[C@@H](Cc3ccccc3)NC(=O)c3cnccn3)O4)NC(=O)[C@@H](N)CC3CCC4OB([C@@H](CC(C)C)NC(=O)[C@@H](CC5CCCCC5)NC(=O)C5CNCCN5)OC4C3)C(=O)NCCCC[C@@H]3NC(=O)[C@@H](Cc4ccccc4)NC(=O)[C@H](CC(=O)O)NC(=O)CNC(=O)[C@H](CCCNC(=N)N)NC3=O)cc2O1 (stereo not given in full) : call = ?
**Result** yes (1)

**Query** Hello, I am checking results. What call was entered for Cc1cc(N2CCSCC2)nc(NC2CCCC(Nc3ccnc4cc(Cl)ccc34)C2)n1 (stereo not given) ?
**Result** yes (1)

**Query** What outcome does the record of this test show for COc1cccc2c1C(=O)c1c(O)c3c(c(O)c1C2=O)C[C@](O)(C(=O)CO)C[C@H]3O[C@@H]1C[C@@H](NC(=O)CCCN(C)C2(c3ccc(F)cc3)CC3CCC2C3)[C@H](O)[C@@H](C)O1 (stereo not given in full) ?
**Result** no (0)

**Query** // param item: Cn1cc(-c2nonc2-c2cn(C)c3ccc(F)cc23)c2cc(F)ccc21 ; yields the recorded call
**Result** no (0)

**Query** Name the outcome recorded for CSc1ccc(-c2n[nH]nc2-c2cc3ccccc3s2)cc1 in the assay.
**Result** no (0)

**Query** Recorded test call requested for Oc1cccc(-c2nc(N3CCOCC3)c3c4c(sc3n2)CCCC4)c1
**Result** yes (1)

**Query** Any idea what this test logged for O=c1ccccc(-c2ccc(-c3ccco3)cc2)c1O ?
**Result** no (0)

**Query** For this molecule, state the assay outcome: C=CC(=O)Nc1cccc(-c2nc(SC)nc(NCCN3CCOCC3)c2C#N)c1
**Result** no (0)

**Query** For CN(Cc1cc(Cl)cc(Cl)c1O)Cc1cc(Cl)cc(Cl)c1O , what call appears in the results of this test?
**Result** no (0)

**Query** // outcome(item) with item = C=CC(=O)Nc1cccc(-c2nc(SC)nc(NCCc3ccc(OC)c(OC)c3)c2C#N)c1
**Result** no (0)

**Query** Look up the recorded call for O=C1c2cc3c(cc2-c2c1c1ccc(F)cc1c(=O)n2C[C@H](O)[C@H](O)[C@H](O)CO)OCO3 in this test.
**Result** yes (1)

**Query** Test call for this molecule, please: O=S(=O)(Nc1ccc(NS(=O)(=O)c2ccccc2)c(Cl)c1)c1ccccc1
**Result** no (0)
